Biological target: human TLR9 (Homo sapiens)
Sequence (Q9NR96 26-1032): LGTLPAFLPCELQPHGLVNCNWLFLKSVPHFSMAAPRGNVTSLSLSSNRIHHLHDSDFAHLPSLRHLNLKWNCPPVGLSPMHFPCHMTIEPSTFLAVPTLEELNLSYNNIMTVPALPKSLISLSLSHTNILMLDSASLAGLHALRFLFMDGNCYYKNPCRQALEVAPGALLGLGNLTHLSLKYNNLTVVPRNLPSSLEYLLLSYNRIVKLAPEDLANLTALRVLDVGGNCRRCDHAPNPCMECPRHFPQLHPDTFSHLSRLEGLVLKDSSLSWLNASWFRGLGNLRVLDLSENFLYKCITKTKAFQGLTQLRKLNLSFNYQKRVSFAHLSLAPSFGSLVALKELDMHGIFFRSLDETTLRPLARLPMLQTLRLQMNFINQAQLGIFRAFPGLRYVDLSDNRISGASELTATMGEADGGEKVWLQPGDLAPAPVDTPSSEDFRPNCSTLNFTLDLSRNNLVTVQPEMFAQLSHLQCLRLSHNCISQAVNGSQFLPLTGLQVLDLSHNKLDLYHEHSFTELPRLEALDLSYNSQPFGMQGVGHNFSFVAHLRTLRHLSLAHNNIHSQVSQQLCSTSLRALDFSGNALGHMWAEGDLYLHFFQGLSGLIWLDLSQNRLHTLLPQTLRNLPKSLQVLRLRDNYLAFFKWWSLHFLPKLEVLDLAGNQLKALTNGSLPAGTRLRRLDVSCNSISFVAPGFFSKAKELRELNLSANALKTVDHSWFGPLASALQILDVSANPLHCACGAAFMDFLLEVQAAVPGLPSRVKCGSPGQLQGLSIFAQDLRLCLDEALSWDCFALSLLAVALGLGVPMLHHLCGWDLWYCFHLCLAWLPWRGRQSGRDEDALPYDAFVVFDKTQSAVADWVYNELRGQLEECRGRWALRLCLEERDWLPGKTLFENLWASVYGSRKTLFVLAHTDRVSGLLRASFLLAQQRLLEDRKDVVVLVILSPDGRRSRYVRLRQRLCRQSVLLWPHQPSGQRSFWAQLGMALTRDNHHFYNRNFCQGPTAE
Experiment: HEK293-Blue-hTLR-9 cells assay (SEAP reporter, ODN2006 stimulation)
Conditions: HEK293-Blue-hTLR9 cells, ODN2006, 20 hrs incubation; read-out: HEK/hTLR9 IC50
experimental_readout: IC50 (nM)
Reply with just the number (in nM).

molecule	numeric_readout
C[C@@H]1CN(c2ccc(C#N)c3ncccc23)C[C@@H]2Cc3cc(N4CC(N)CC4=O)ccc3CN21 (stereo partly shown)	125
C[C@@H]1CN(c2ccc(C#N)c3ncccc23)C[C@@H]2Cc3cc(N4C[C@@H](F)[C@@H](N)C4)ccc3CN21	85.3
C[C@@H]1CN(c2ccc(C#N)c3ncccc23)C[C@@H]2Cc3cc(N4CCN(C(=O)[C@]5(C)CCCN5)CC4)ccc3CN21	254

Now for another entry.
Measured IC50 (human TLR9 (Homo sapiens)), entry C[C@@H]1CN(c2ccc(C#N)c3ncccc23)C[C@@H]2Cc3cc(N4C[C@@H]5CNCCN5C4=O)ccc3CN21 (single isomer, unassigned) [Example 17A] : 107

---

Biological target: human TLR8 (Homo sapiens, UniProt Q9NR97)
Sequence (Q9NR97 27-1041): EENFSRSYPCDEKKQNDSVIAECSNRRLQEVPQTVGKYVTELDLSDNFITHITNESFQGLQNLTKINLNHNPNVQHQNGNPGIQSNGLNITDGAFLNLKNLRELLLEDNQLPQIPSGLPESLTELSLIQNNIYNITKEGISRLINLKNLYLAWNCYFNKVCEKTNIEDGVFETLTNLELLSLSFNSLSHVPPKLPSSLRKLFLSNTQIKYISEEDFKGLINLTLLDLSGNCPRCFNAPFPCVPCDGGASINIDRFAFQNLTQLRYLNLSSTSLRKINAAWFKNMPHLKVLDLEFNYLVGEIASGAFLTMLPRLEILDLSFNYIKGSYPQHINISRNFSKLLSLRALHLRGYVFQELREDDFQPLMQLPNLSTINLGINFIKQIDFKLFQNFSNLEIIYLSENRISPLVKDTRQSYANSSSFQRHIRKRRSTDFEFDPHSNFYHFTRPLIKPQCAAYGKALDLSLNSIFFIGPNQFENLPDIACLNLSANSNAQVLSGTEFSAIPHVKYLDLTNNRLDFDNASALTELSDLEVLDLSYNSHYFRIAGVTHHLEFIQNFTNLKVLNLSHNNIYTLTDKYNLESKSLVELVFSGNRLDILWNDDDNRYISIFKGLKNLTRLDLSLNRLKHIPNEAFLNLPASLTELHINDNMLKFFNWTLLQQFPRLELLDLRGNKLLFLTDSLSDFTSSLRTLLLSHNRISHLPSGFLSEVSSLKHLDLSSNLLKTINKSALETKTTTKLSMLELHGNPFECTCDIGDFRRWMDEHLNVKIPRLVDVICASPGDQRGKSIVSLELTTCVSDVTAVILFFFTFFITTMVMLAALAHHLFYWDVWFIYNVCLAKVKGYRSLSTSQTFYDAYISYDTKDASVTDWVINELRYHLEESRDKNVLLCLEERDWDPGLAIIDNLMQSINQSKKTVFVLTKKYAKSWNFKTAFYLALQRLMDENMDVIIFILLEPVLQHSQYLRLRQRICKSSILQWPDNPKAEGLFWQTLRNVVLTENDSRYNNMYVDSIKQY
Test: HEK293-Blue-hTLR-8 cells assay (SEAP reporter, R848 stimulation)
Conditions: HEK293-Blue-hTLR8 cells, R848, 20 hrs incubation; read-out: HEK/hTLR8 IC50
Use IC50 to assign classes; range list: bottom (below 5 nM), middle (5 nM to below 10 nM), top (10 nM or more)

Example entries and their recorded answers appear below.
molecule	class_label
C[C@@H]1CN(c2ccc(C#N)c3ncccc23)C[C@@H]2Cc3cc(N[C@@H]4CNC[C@@H]4F)ccc3CN21	top
C[C@@H]1CN(c2ccc(C#N)c3ncccc23)C[C@@H]2Cc3cc(N4C[C@@H]5C[C@H]4CN5C(=O)C(C)(C)N)ccc3CN21	bottom
CO[C@H]1CN(c2ccc3c(c2)C[C@H]2CN(c4ccc(C#N)c5ncccc45)C[C@@H](C)N2C3)C[C@H]1N	bottom
C[C@@H]1CN(c2ccc(C#N)c3ncccc23)C[C@@H]2Cc3ccc(OCCN(C)C)cc3CN21	middle

Consider C[C@@H]1CN(c2ccc(C#N)c3ncccc23)C[C@@H]2Cc3cc(N4CC5CNCCC5C4=O)ccc3CN21 (some centres unmarked) . To which IC50 class does it belong?
bottom

Consider C[C@@H]1CN(c2ccc(C#N)c3ncccc23)C[C@@H]2Cc3cc(OCCN(C)C)ccc3CN21 . To which IC50 class does it belong?
top

Consider CO[C@H]1CNC[C@H]1Nc1ccc2c(c1)C[C@H]1CN(c3ccc(C#N)c4ncccc34)C[C@@H](C)N1C2 . To which IC50 class does it belong?
top

Consider C[C@@H]1CN(c2ccc(C#N)c3ncccc23)C[C@@H]2Cc3cc(OC[C@@H]4CCN4)ccc3CN21 . To which IC50 class does it belong?
top

Consider C[C@@H]1CN(c2ccc(C#N)c3ncccc23)C[C@@H]2Cc3cc(N4CC5CCNCC5C4=O)ccc3CN21 (some centres unmarked) . To which IC50 class does it belong?
top

Consider C[C@@H]1CN(c2ccc(C#N)c3ncccc23)C[C@@H]2Cc3ccc(NCCN4CC[C@H](O)C4)cc3CN21 . To which IC50 class does it belong?
bottom

Consider C[C@@H]1CN(c2ccc(C#N)c3ncccc23)C[C@@H]2Cc3cc(N4C[C@@H](F)[C@@H](N)C4)ccc3CN21 . To which IC50 class does it belong?
top

Consider C[C@@H]1CN(c2ccc(C#N)c3ncccc23)C[C@@H]2Cc3cc(N4C[C@@H]5CNCCN5C4=O)ccc3CN21 (single isomer, unassigned) [Example 17A] . To which IC50 class does it belong?
middle

Consider C[C@@H]1CN(c2ccc(C#N)c3ncccc23)C[C@@H]2Cc3cc(N4CC(N)CC4=O)ccc3CN21 (some centres unmarked) . To which IC50 class does it belong?
middle

Consider C[C@@H]1CN(c2ccc(C#N)c3ncccc23)C[C@@H]2Cc3cc(N4CC5NCCOC5C4)ccc3CN21 (stereo in doubt) . To which IC50 class does it belong?
bottom
